Origin of measurements: the supplement of paper PMC11061612

Tested on: KM-H2 (Hodgkin's Lymphoma)
Assay: combination Emax (second highest fraction inhibited in the dose matrix, 72 h); higher = more inhibition; extreme values may be limits of the assay
The entries below are paired with their reported combination Emax.

COMPOUND | combination Emax
CN(C)CCCOc1ccc(-c2ccc3ncc4c(c3c2)n(C2CCOCC2)c(=O)n4C)cn1 [AZD0156] + C=CCn1c(=O)c2cnc(Nc3ccc(N4CCN(C)CC4)cc3)nc2n1-c1cccc(C(C)(C)O)n1 [AZD1775] (first compound max 1 µM, partner max 1 µM) | 0.953
Cc1c2c(nn1C)CSCc1cc(n(C)n1)CSc1cc(c3ccccc3c1)OCCCc1c(C(=O)O)n(C)c3c-2c(Cl)ccc13 [AZD5991] + CC1(C)CCC(CN2CCN(c3ccc(C(=O)NS(=O)(=O)c4ccc(NCC5CCOCC5)c([N+](=O)[O-])c4)c(Oc4cnc5[nH]ccc5c4)c3)CC2)=C(c2ccc(Cl)cc2)C1 [Venetoclax] (first compound max 1 µM, 7x7, partner max 1 µM) | 0.312
CC(=O)c1c(C)c2cnc(Nc3ccc(N4CCNCC4)cn3)nc2n(C2CCCC2)c1=O [Palbociclib] + Cc1c2c(nn1C)CSCc1cc(n(C)n1)CSc1cc(c3ccccc3c1)OCCCc1c(C(=O)O)n(C)c3c-2c(Cl)ccc13 [AZD5991] (first compound max 10 µM, 7x7, partner max 1 µM) | 0.567
CN(C)CCCOc1ccc(-c2ccc3ncc4c(c3c2)n(C2CCOCC2)c(=O)n4C)cn1 [AZD0156] + CCN(CCO)CCCOc1ccc2c(Nc3cc(CC(=O)Nc4cccc(F)c4)[nH]n3)ncnc2c1 [AZD2811] (first compound max 1 µM, 7x7, partner max 1 µM) | 0.327
Cc1c2c(nn1C)CSCc1cc(n(C)n1)CSc1cc(c3ccccc3c1)OCCCc1c(C(=O)O)n(C)c3c-2c(Cl)ccc13 [AZD5991] + C[C@@H]1COCCN1C2=NC(=NC(=C2)C3(CC3)[S@](=N)(=O)C)C4=C5C=CNC5=NC=C4 [AZD6738] (first compound max 1 µM, 7x7, partner max 10 µM) | 0.814

###

Test system: SW1990 (Pancreatic Carcinoma);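 further: after 72 h of two-drug dosing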
Assay: Bliss excess, mean over the matrix (fraction); higher = more synergy
The entries below are paired with their reported Bliss excess.

MOLECULE | Bliss excess
CN(CCO)CC[C@H](CSc1ccccc1)Nc1ccc(S(=O)(=O)NC(=O)c2ccc(N3CCC([C@@H](O)c4ccccc4-c4ccc(Cl)cc4)CC3)cc2)cc1S(=O)(=O)C(F)(F)F [AZD4320] + CC(=O)O[C@H]1C(=O)[C@@]2(C)[C@H]([C@H](OC(=O)c3ccccc3)[C@]3(O)C[C@H](OC(=O)[C@H](O)[C@@H](NC(=O)c4ccccc4)c4ccccc4)C(C)=C1C3(C)C)[C@]1(OC(C)=O)CO[C@@H]1C[C@@H]2O [Paclitaxel] (first compound max 1 µM, 7x7, partner max 3 µM) | 0.329
NC1(C(=O)N[C@@H](CCO)c2ccc(Cl)cc2)CCN(c2ncnc3[nH]ccc23)CC1 [Capivasertib] + COc1nnc2ccc(N3CCC(c4ccc(OCCN5CCN(C)C(=O)[C@H]5C)cc4)CC3)nn12 [AZD5153] (first compound max 10 µM, 7x7, partner max 1 µM) | -0.0086
NC1(C(=O)N[C@@H](CCO)c2ccc(Cl)cc2)CCN(c2ncnc3[nH]ccc23)CC1 [Capivasertib] + Cn1cnc2c(F)c(Nc3ccc(Br)cc3Cl)c(C(=O)NOCCO)cc21 [Selumetinib] (first compound max 10 µM, 7x7, partner max 10 µM) | 0.0535
